Origin of values: PubChem BioAssay (NCI)

System: SNB-19 CNS
MEASUREMENT_DESCRIPTION: NCI tumour cell line growth inhibition, 48 h; in the data active means GI50 below about 0.43 µM; inactive means the rest
Field 'call' accepts active, inactive

Check out these entries, answers already filled in.
- COMPOUND: "O=C1c2[nH]cc(CN3CCNCC3)c2C(=O)c2c1c(O)c1ccccc1c2O"
  STUDY_SYSTEM: "SNB-19 CNS"
  CLASS_LABEL: "inactive"
- COMPOUND: "COC(=O)C[CH](C(=O)OC)[Ge]([CH3])([CH3])[S]c1ccccc1 (stereo not given)"
  STUDY_SYSTEM: "SNB-19 CNS"
  CLASS_LABEL: "inactive"
- COMPOUND: "CCN(CC)CCN1C(=O)c2c(c(C)c3c(oc4cc(O)ccc43)c2C)C1=O"
  STUDY_SYSTEM: "SNB-19 CNS"
  CLASS_LABEL: "inactive"
- COMPOUND: "Cl.[Pt].[c-]1ccccc1-c1ccccn1.c1ccc(P(c2ccccc2)C([PH+](c2ccccc2)c2ccccc2)[PH+](c2ccccc2)c2ccccc2)cc1"
  STUDY_SYSTEM: "SNB-19 CNS"
  CLASS_LABEL: "inactive"

In the following, a different compound is considered.
What call does the record list for CC1(C)CCC[C@]23C(=O)O[C@](O)(C(=O)C4=C[C@@](C)(/C=C/CCCc5ccc6ccc7cccc8ccc5c6c78)CC[C@@]42O)[C@@H]13 ? active
